System: A2058 (human melanoma cells)
experiment summary: A2058 cell scratch assay (cell migration inhibition)
Type: cell-based
protocol conditions: A2058 scratch area 0 h vs 24 h, 10 μM LPA, read-out: Cell migration inhibition rate
Experimental: The activity of the compounds disclosed herein at the cell level in vitro is evaluated by A2058 (human melanoma cells, Beina Bio, BNCC341099) cell scratch assay. […] A2058 cells in a T75 cm^2 cell culture flask were digested and gently pipetted into single cells, adjusted to a cell density of 4×10^5 cells/mL, and then seeded into a 24-well plate. […] Cell migration inhibition rate was calculated according to the following formula: […]
Listing of recorded inhibition by entry.

Worked set:
[in] // lookup inhibition | system=A2058 (human melanoma cells) | key= Cn1nnc(-c2ccc(O[C@H]3CCC[C@H](C(=O)O)C3)c(C(F)(F)F)n2)c1CNC(=O)OC1CCCC1 (racemic)
[out] 50 to 70%

[in] Please tell me: inhibition of Cn1nnc(-c2ccc(O[C@H]3CCC[C@H](C(=O)O)C3)cc2)c1COCc1ccccc1 (racemic) , system A2058 (human melanoma cells)?
[out] 30 to 50%

---
[in] What value of inhibition on A2058 (human melanoma cells) does CN(Cc1ccccc1)C(=O)/C=C/c1c(-c2ccc(O[C@H]3CCC[C@H](C(=O)O)C3)cc2)nnn1C (racemic) have?
[out] 0 to 30%

[in] API: value(readout=inhibition, system=A2058 (human melanoma cells)) for record Cn1nnc(-c2ccc(O[C@H]3CCC[C@H](C(=O)O)C3)cc2)c1CN1CCN(Cc2ccccc2)C1=O (racemic)
[out] 0 to 30%

---

The following molecules are listed with their measured inhibition values.
System: A2058 (human melanoma cells)
experiment summary: A2058 cell scratch assay (cell migration inhibition)
Format: cell-based
protocol conditions: A2058 scratch area 0 h vs 24 h, 10 μM LPA, read-out: Cell migration inhibition rate

[in] Bench note: what inhibition did Cn1nnc(-c2ccc(O[C@H]3CCC[C@H](C(=O)O)C3)cc2)c1CNC(=O)/C=C/c1ccccc1 (racemic) show?
[out] 0 to 30%

Continuing:
[in] Data request, read-out inhibition, for `CN(Cc1ccccc1)C(=O)OCc1c(-c2ccc(N[C@H]3CCC[C@H](C(=O)O)C3)cc2)nnn1C`
[out] 0 to 30%

[in] Requested field: inhibition. Item: `CN(Cc1ccccc1)C(=O)OCc1c(-c2ccc(OCCC(=O)O)cc2)nnn1C`
[out] 0 to 30%

Hello, the source for this data is patent US12378204B2, in case you need it.
